All figures here come from ChEMBL document CHEMBL3393034.

This section presents molecules with their documented pKi values.
- target desc: Orexin/Hypocretin receptor type 1 (Homo sapiens, UniProt O43613)
- Sequence (O43613 whole entry): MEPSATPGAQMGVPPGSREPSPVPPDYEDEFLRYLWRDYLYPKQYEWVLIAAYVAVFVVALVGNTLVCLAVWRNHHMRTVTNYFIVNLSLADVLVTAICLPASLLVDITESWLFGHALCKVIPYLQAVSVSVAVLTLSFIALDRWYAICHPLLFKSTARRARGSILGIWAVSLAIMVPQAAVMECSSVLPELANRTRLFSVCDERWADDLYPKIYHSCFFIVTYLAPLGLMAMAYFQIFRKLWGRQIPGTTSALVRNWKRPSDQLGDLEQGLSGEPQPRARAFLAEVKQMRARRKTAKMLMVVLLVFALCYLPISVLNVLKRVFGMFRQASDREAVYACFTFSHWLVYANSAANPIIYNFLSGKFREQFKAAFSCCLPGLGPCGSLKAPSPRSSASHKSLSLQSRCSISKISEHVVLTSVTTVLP
pKi: −log10 of the molar value.
measure name: pKi

- molecule: "C[C@@H]1CC[C@@H](Oc2ccnc3c(F)cccc23)CN1C(=O)c1ccccc1-n1nccn1"
  measure name: "pKi"
  assay result: 6.02
- molecule: "O=C(c1ccccc1-n1nccn1)N1CCC(F)(F)[C@@H](Oc2ccc3ccccc3n2)C1"
  measure name: "pKi"
  assay result: 8.89
- molecule: "Cc1ccc(-n2nccn2)c(C(=O)N2CCCC(Oc3cccc4ccccc34)C2)c1 (stereo not drawn)"
  measure name: "pKi"
  assay result: 8.05
